Target: CePOFUT1 (Caenorhabditis elegans, UniProt Q18014)
Construct: gene pfut-1; codon-optimized synthetic gene in pPICZalphaA with KEX2 cleavage signal, secreted from Pichia pastoris X-33; monomer
Sequence (Q18014 26-382): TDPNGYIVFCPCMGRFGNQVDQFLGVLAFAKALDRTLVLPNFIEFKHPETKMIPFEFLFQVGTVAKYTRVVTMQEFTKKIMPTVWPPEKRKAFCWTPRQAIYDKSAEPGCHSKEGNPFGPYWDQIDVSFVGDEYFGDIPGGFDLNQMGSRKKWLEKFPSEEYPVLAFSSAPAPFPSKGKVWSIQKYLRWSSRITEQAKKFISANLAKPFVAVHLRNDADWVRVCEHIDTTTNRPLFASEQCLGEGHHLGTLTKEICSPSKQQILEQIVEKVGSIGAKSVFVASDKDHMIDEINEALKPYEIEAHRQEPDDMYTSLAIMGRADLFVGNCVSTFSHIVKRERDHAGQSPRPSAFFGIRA
Experiment: isothermal titration calorimetry
Format: binding
Conditions: read-out: K d (μM)GDP-fucose
Description: isothermal titration calorimetry on CePOFUT1
RECORDED_METRIC: Kd (µM)
Quick reminder: number only, in µM, skip the unit.

IN: // Kd lookup, key: C[C@@H]1O[C@H](OP(=O)(O)OP(=O)(O)OC[C@H]2O[C@@H](n3cnc4c(=O)[nH]c(N)nc43)[C@H](O)[C@@H]2O)[C@@H](O)[C@H](O)[C@@H]1O
OUT: 0.23
